The origin of these recorded values is patent US7135466B2.

target: c-kit (Homo sapiens, UniProt P10721); construct: MO7e (human megakaryocytic leukemia cell line) which had been arrested for 20 hr; endogenous in cells; host or cells: MO7e human megakaryocytic leukemia cell line; assay: Inhibitory activity against c-kit autophosphorylation (MO7e cells, h-SCF); format: cell-based; conditions: MO7e cells, 50 ng/ml h-SCF; read-out: c-kit IC50
Sequence (P10721 26-976): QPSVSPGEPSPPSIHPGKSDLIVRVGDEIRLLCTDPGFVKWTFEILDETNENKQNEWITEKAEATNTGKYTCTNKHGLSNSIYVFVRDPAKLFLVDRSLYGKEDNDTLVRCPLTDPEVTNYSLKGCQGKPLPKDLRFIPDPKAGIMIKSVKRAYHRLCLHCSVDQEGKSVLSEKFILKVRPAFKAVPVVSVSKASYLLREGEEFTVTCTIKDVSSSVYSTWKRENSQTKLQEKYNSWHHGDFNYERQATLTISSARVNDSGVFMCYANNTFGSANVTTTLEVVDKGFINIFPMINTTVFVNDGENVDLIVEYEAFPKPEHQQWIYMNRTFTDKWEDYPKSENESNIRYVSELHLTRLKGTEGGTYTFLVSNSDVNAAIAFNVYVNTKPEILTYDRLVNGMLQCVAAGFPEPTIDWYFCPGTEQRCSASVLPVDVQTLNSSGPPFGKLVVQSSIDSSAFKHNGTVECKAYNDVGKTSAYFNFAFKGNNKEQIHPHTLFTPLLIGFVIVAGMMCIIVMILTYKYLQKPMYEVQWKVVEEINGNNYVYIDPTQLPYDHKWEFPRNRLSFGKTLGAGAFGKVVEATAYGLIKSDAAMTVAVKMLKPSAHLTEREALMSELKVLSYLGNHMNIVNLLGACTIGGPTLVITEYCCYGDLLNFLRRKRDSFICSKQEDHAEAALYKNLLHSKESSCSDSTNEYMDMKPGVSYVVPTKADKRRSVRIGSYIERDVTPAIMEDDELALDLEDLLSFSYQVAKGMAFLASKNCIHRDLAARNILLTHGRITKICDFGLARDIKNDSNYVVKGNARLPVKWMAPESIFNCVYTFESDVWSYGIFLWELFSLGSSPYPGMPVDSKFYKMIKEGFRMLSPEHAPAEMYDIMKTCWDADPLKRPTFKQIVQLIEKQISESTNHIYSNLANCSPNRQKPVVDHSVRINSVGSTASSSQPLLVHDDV
measurement_kind: IC50 (µM)

# compound, IC50 (µM)
rows = [
    ("COc1cc2nccc(Oc3ccc(NC(=O)NN4CCCCCC4)cc3)c2cc1OC [Example 608]", 0.201),
    ("COc1cc2nccc(Oc3ccc(NC(=O)NCCN(C)C)c(C)c3C)c2cc1OC [Example 626]", 0.339),
    ("COc1cc2ncnc(Oc3ccc(NC(=O)NC4CCN(CC5CCCCC5)C4)cc3)c2cc1OC (stereo not drawn) [Example 586]", 0.734),
]

[I] COc1cc2ncnc(Oc3ccc(NC(=S)NCc4ccccc4)cc3)c2cc1OC [Example 707]
[II] COc1cc2nccc(Oc3ccc(NC(=O)NCCN4CCOCC4)cc3)c2cc1OC [Example 628]
Input: # query: argmin of IC50 over I and II I would appreciate it if you answered with the label of your choice.
Output: II

[a] COc1cc2ncnc(Oc3ccc(NC(=O)NN4CCCCCC4)cc3)c2cc1OC [Example 602]
[b] COc1cc2nccc(Oc3ccc(NC(=S)NC(=O)COc4ccccc4)cc3Cl)c2cc1OC [Example 738]
Input: # query: argmin of IC50 over a and b I would appreciate it if you answered with the label of your choice.
Output: a

[a] COc1ccc(OCCCOc2ccc(Oc3ccnc4cc(OC)c(OC)cc34)cc2)cc1 [Example 794]
[b] CCN(CC)CCNC(=O)Nc1ccc(Oc2ncnc3cc(OC)c(OC)cc23)cc1[N+](=O)[O-] [Example 647]
Input: Identify the entry with the larger IC50. Options: a and b I would appreciate it if you answered with the label of your choice.
Output: b
(b: 0.712 µM, a: 0.192 µM)

[a] CCCC(CCN1CCCCC1)OC(=O)Nc1ccc(Oc2ccnc3cc(OC)c(OC)cc23)cc1 (stereo not drawn) [Example 445]
[b] COc1cc2nccc(Oc3ccc(NC(=S)NCCN(C)C)c(C)c3C)c2cc1OC [Example 542]
[c] COc1cc2ncnc(Oc3ccc(N(C)C(=O)OCC4CCCCCC4)cc3)c2cc1OC [Example 484]
Input: Write the entries in order, lowest recorded IC50 first. Provide the ranking by listing each label in its place in the requested order.
Output: c, b, a

[a] COc1cc2nccc(Oc3ccc(NC(=O)NCCN4CCCCC4)c(C)c3C)c2cc1OC [Example 675]
[b] COc1cc2ncnc(Oc3ccc(NC(=O)NN4CCCCC4)cc3)c2cc1OC [Example 603]
Input: Identify the entry with the larger IC50. Options: a and b I would appreciate it if you answered with the label of your choice.
Output: b

[1] COc1cc2nccc(Oc3ccc(NC(=O)NCCN4CCCCC4)cc3)c2cc1OC [Example 673]
[2] CCN(CCNC(=O)Nc1ccc(Oc2ccnc3cc(OC)c(OC)cc23)cc1)c1cccc(C)c1 [Example 661]
Input: # query: argmin of IC50 over 1 and 2 I would appreciate it if you answered with the label of your choice.
Output: 2
(2: 0.075 µM, 1: 0.426 µM)

[A] CCCCN(CCCC)CCNC(=O)Nc1ccc(Oc2ccnc3cc(OC)c(OC)cc23)c(C)c1C [Example 684]
[B] COc1cccc(NC(=O)COc2ccc(Oc3ccnc4cc(OC)c(OC)cc34)cc2)c1 [Example 778]
Input: Identify the entry with the larger IC50. Options: A and B I would appreciate it if you answered with the label of your choice.
Output: A
(A: 0.549 µM, B: 0.084 µM)

[I] CCN(CC)CCOC(=O)Nc1ccc(Oc2ccnc3cc(OC)c(OC)cc23)cc1 [Example 435]
[II] COc1ccc(NCCOc2ccc(Oc3ccnc4cc(OC)c(OC)cc34)cc2)cc1 [Example 781]
[III] COc1cc2nccc(Oc3ccc(NC(=S)NC(=O)COc4ccccc4C)cc3)c2cc1OC [Example 739]
[IV] COc1cc(Oc2ncnc3cc(OC)c(OC)cc23)ccc1NC(=O)OC1CCCCC1 [Example 497]
Input: List from greatest to least IC50. Provide the ranking by listing each label in its place in the requested order.
Output: I, III, II, IV
